The molecules listed here are annotated with their INHIBITION.
- System: Plasmodium berghei
- Method: Screen against P. berghei liver stage (PbLuc), transformed with Luciferase, at 2uM
- Type: functional, HepG2
- Experimental Setup: tested at 2 uM
Among all 68,000 compounds or so, about 2,700 (4%) showed an effect of 50% or more. What follows is part of a selection rich in strong results, with near analogues and random picks from the rest.
Supply the numeric figure in %, leaving out any unit text.

Solved cases below.
Molecule	Assayed System	Scale Unit	Val
COc1cccc(Cn2cc(C3=CCN(CC(=O)N(C)C)CC3)cn2)c1	Plasmodium berghei	%	57.41
Cc1cnccc1N1CCCN(C(=O)CCCc2cn[nH]c2)CC1	Plasmodium berghei	%	9.17
COCC(O)CN(C)c1cc(C(F)(F)F)nc(-c2cccnc2)n1 (stereo not drawn)	Plasmodium berghei	%	-2.47
CC(=O)N1N=C(c2ccco2)OC1C(=O)NCCc1ccc(O)cc1 (stereo not drawn)	Plasmodium berghei	%	20.42
CCSC1(CNc2ncc(Br)cn2)CCOCC1	Plasmodium berghei	%	13.53
Nc1cccnc1N1CCN(c2ccccc2)CC1	Plasmodium berghei	%	-43.35
CCc1ccc(CNC(=O)CCNc2ncccn2)s1	Plasmodium berghei	%	-18.99
COc1cc(NC(=O)c2cc(C)sc2C)c(C(=O)N(C)C)cc1OC	Plasmodium berghei	%	58.24

So for O=c1[nH]c(NC2CCCC2)nc2nccc(-c3ccsc3)c12 , the logged INHIBITION turned out to be -18.11

So for C/C(NC(=O)c1cccs1)=C1\C(=O)C[C@@H]2[C@H]1C2(C)C , the logged INHIBITION turned out to be 21.57
